- Procedure Summary: Acute toxicity, oral, 14 days observation, Litchfield-Wilcoxon method
- Settings: mouse, in vivo, 5-week-old ICR male mice
Attribute Measured: LD50 at 336 h

Consider the molecule CC(=O)OC[C@H]1O[C@@H](n2cc(F)c(=O)[nH]c2=O)C[C@@H]1OCc1ccccc1 . State its measured LD50 at 336 h. > 1000 mg/kg

Please turn your attention to the following entry.
Give the value of LD50 at 336 h reported for the following: O=c1[nH]c(=O)n([C@H]2C[C@H](OCc3ccccc3)[C@@H](CO)O2)cc1F > 1000 mg/kg
